tested on: SK-MEL-28; experiment: NCI tumour cell line growth inhibition, 48 h
Calls of active or inactive are those of the source. Cut-off read from the data, not from the text of the source: active = GI50 up to about 1.1 µM and inactive = higher.
Outcomes: Y for active, N for inactive

>>> classassignment("COc1c(O)cc2oc(-c3ccc(O)cc3)cc(=O)c2c1O [HISPIDULIN]")
"N"
>>> classassignment("OCC1OC(c2n[nH]c3c(O)ncnc23)C(O)C1O (centres undefined)")
"N"
>>> classassignment("CCOC(=O)c1ccc(Nc2cnc3cc(C(F)(F)F)ccc3n2)cc1")
"N"
>>> classassignment("COc1ccc2c(c1)C(N)=C(Cc1ccncc1)C2=O")
"N"
>>> classassignment("O=C1CN(c2cccc(C(F)(F)F)c2)C(=O)CN1CCN1CC(=O)N(c2cccc(C(F)(F)F)c2)CC1=O")
"N"
>>> classassignment("O=NN(CCCl)C(=O)NCCCl [CARMUSTINE]")
"N"
>>> classassignment("CC(=O)Nc1ccc(-c2nnc(SCC(=O)Nc3ccccc3C)o2)cc1")
"N"
>>> classassignment("COC1=CC(=O)c2c(cc(COP(N)(=O)N(CCBr)CCBr)n2C)C1=O (centres undefined)")
"N"
>>> classassignment("CC(=O)Nc1ccc(S(=O)(=O)/N=C2\\C=CC(=O)c3ccccc32)cc1")
"N"
>>> classassignment("OCCNc1ncnc2[nH]cnc12")
"N"
>>> classassignment("CCOC(=O)C1=C(c2ccccc2)NC(c2ccccc2)=C(C(=O)OCC)c2c1c(=O)cc[nH]c2=O")
"N"
>>> classassignment("COc1ccc(C2=C(Cl)C(=O)N(c3ccc(OC)cc3OC)C(=O)C2(Cl)Cl)cc1")
"N"
>>> classassignment("CCC/C(=N\\NC(=S)N1CCN(c2ccccn2)CC1)c1ccccn1")
"Y"
>>> classassignment("CCOC(=O)c1sc2nc(SC)nc(Nc3ccc(OC)c(OC)c3)c2c1N")
"N"
>>> classassignment("O=S(=O)(c1ccccc1)[C@@H]1[C@H]2C=C[C@](CS)(O2)[C@H]1S(=O)(=O)c1ccccc1")
"N"
>>> classassignment("N#CCCCCCOCCOCCOCCOCCOCCCCCC#N")
"N"
>>> classassignment("O=C(c1ccccc1)N1C(=S)NC(=N/c2ccccc2)/C1=N\\c1ccccc1")
"N"
>>> classassignment("CC1(C)CC(=O)C2=C(C1)S/C(=C1/SC3=C(S1)C(=O)CC(C)(C)C3)S2")
"N"
>>> classassignment("CC(C)(C)c1cc(C2COC(=O)COCCOCC(=O)OCCOCCO2)cc(C(C)(C)C)c1O (centres undefined)")
"N"

* * *

GI50 values by entry
tested on: IGROV-1; assay: NCI tumour cell line growth inhibition, 48 h
Calls of active or inactive are those of the source. No stated cut-off is given here; in the data, active = GI50 up to about 1.1 µM and inactive = higher.
measurementName: GI50

>>> result("CC(=O)OC1CCC2(C)C(=CCC3C2CCC2(C)C3CC3OC4(CCC(C)CN4)C(C)C32)C1 (configuration not stated)")
"> 100 µM (inactive)"
>>> result("COC(=O)C1CCOC(C)N1C(=O)OC(C)(C)C (configuration not stated)")
"> 100 µM (inactive)"
>>> result("CC(C)(S)C(N)C(=O)O (stereo not drawn) [DL-PENICILLAMINE]")
"> 100 µM (inactive)"
>>> result("CCOC(=O)C1(C(N)=O)C(=O)c2ccncc2C1=O (configuration not stated)")
"> 100 µM (inactive)"
>>> result("CCCCCCC(O)C/C=C/CCCCCC/C(C(=O)OC)=C(/O)C(=O)OCC (configuration not stated)")
"> 100 µM (inactive)"
>>> result("O=C(c1ccccc1)N1C2C3CC(OCc4ccccc4)(OCc4ccccc4)C(O3)C21 (configuration not stated)")
"> 100 µM (inactive)"
>>> result("COc1ccc2c(c1)C(=O)c1ccccc1C2")
"38.8 µM (inactive)"
>>> result("O=Cc1ccc2c(c1-c1c(C=O)ccc3c1OCO3)OCO2")
"> 100 µM (inactive)"
>>> result("CSCSCC(N)CO.Cc1[nH]c(=O)[nH]c(=O)c1/C=C/C(=O)O")
"> 625 µM (inactive)"
>>> result("CC(=O)c1[nH]c(NC(C)C)c(C(=S)Nc2ccccc2)c1N")
"26.4 µM (inactive)"
>>> result("Cn1cc(NC(=O)c2cc(NC(=O)CCCCCC(=O)Nc3cc(C(=O)Nc4cc(C(=O)NCCC(=N)N)n(C)c4)n(C)c3)cn2C)cc1C(=O)NCCC(=N)N")
"98.6 µM (inactive)"
>>> result("CC1(C)C(=O)N(c2ccccc2)C(=O)N1c1nc2ccccc2[nH]1")
"> 100 µM (inactive)"
>>> result("COc1ccc(N[C@H](C[S+]([O-])c2ccc(C)cc2)C(F)(F)F)cc1 (some centres not stated)")
"> 100 µM (inactive)"
>>> result("C[N+](C)(N)CCC[N+](C)(C)N")
"> 100 µM (inactive)"
>>> result("CCOc1cc(C2CC(c3ccc(NS(=O)(=O)c4cc([N+](=O)[O-])ccc4C)cc3)=NN2C(=O)c2ccccc2)ccc1O (configuration not stated)")
"10.6 µM (inactive)"
>>> result("CCC(=O)c1cc(C(=O)C(=S)SC)cc(C(=O)C(=S)SC)c1")
"> 100 µM (inactive)"
>>> result("O=C(O)CCc1ccc2c(c1)CC1(Cc3ccccc3C1)C2")
"> 100 µM (inactive)"
>>> result("O=C1OCc2cccc3c2-c2c1cccc2C(=O)OC3")
"> 100 µM (inactive)"
>>> result("CC(C)(O)[C@@H]1CCC(C)([C@H]2[C@@H](O)CC3(C)C4CC(OC5OC(CO)C(O)C(O)C5O)C5C(C)(C)[C@@H](OC6OCC(O)C(O)C6O)CC[C@@]56C[C@@]46CC[C@]23C)O1 (some centres not stated)")
"> 100 µM (inactive)"
>>> result("[N-]=[N+]=CC(=O)COC(=O)c1ccccc1")
"> 100 µM (inactive)"
>>> result("O=C1OCC(CN2CCC(n3c(=O)[nH]c4ccccc43)CC2)=C1c1ccccc1")
"22.2 µM (inactive)"
>>> result("Fc1cc(-c2cc(-c3ccc4c(c3)OCO4)n[nH]2)c(Cl)cc1Cl")
"1.71 µM (inactive)"
>>> result("C[N+]1=C2[B-](C(C)(C)C)=[N+](C(C)(C)C)[B-]2(C(C)(C)C)[N+](C)=C2[B-](C(C)(C)C)=[N+](C(C)(C)C)[B-]21C(C)(C)C (configuration not stated)")
"> 100 µM (inactive)"
>>> result("CCc1cccc(C)c1NC(=O)C(=O)Cc1nc2ccccc2o1")
"> 100 µM (inactive)"
>>> result("COc1c(O)cc2oc(-c3ccc(O)cc3)cc(=O)c2c1O [HISPIDULIN]")
"22.7 µM (inactive)"
>>> result("COc1cc([C@H]2Oc3cc(O)c4c(=O)cc(-c5ccc(O)cc5)oc4c3O[C@@H]2CO)ccc1O")
"19.7 µM (inactive)"
>>> result("Clc1cccc(-c2nnc(-c3nn(-c4ccccc4)c4nc5ccccc5nc34)o2)c1")
"> 100 µM (inactive)"

* * *

tested on: SK-MEL-2; test: NCI tumour cell line growth inhibition, 48 h
Active and inactive are the calls of the source. No stated cut-off is given here; in the data, active = GI50 up to about 1.1 µM and inactive = higher.
measurementName: GI50

>>> result("N#Cc1ccc(/C=[N+](/C=c2ccc(=C=[N-])cc2)N(CCO)C2=NCCN2)cc1")
"> 100 µM (inactive)"
>>> result("CCCCCCOc1ccc(C(=O)NOC)cc1")
"> 100 µM (inactive)"
>>> result("CC(=O)OC1CCC2(C)C(=CCC3C2CCC2(C)C3CC3OC4(CCC(C)CN4)C(C)C32)C1 (stereo unspecified)")
"> 100 µM (inactive)"
>>> result("CC(/C=C/C(O)=C1/C(=O)CNC1=O)=C\\[C@@H](C)[C@H]1O[C@@]2(C)O[C@H](C(=O)[C@@H]3O[C@@]32C)[C@@H]1C")
"22.7 µM (inactive)"
>>> result("COc1cccc2c(NNc3ccccc3)c3ccc([N+](=O)[O-])cc3nc12")
"25.8 µM (inactive)"
>>> result("O=NN(CCCl)C(=O)NCCCl")
"91 µM (inactive)"
>>> result("CC(C)(C)OC(=O)N(CCCCNC(=O)c1ccccc1)CCCNC(=O)c1ccccc1")
"> 100 µM (inactive)"
>>> result("CC1(Br)CC2OC3(Br)C=CC(C)(O)C2(CC1=O)C3(C)C (stereo unspecified)")
"> 100 µM (inactive)"
>>> result("CNc1nc(=O)c(C#N)c(-c2ccc(C)cc2)s1")
"> 100 µM (inactive)"
>>> result("COc1ccc(-n2c(=O)[nH]n(C(C)=O)c2=O)cc1")
"> 100 µM (inactive)"
>>> result("O=C(c1ccc(Cl)cc1)C1OC12C(=O)Nc1ccccc12 (stereo unspecified)")
"7.6 µM (inactive)"
>>> result("COC(=O)C(Cc1ccccc1)C(=O)NC(CNC(=O)OCc1ccccc1)C(=O)OCc1ccccc1 (stereo unspecified)")
"24.1 µM (inactive)"
>>> result("C#CC1(O)c2ccccc2C(=O)c2ccccc21")
"> 100 µM (inactive)"
>>> result("O=C(COc1ccc2c(=O)cc(-c3ccc(Cl)cc3)oc2c1)N1CCN(c2ccccc2)CC1")
"> 100 µM (inactive)"
>>> result("C/C(=N\\NC(=S)N1CCOCC1)c1nc2cccnc2[nH]1")
"17.9 µM (inactive)"
>>> result("CC1SC2=NC3=C(c4ccccc4C3=O)C(c3ccc(Br)cc3)N2C1=O (stereo unspecified)")
"48.1 µM (inactive)"
